Experiment: acute toxicity, intraperitoneal injection in wild type mice
Conditions: mouse, in vivo, ip; intraperitoneal injection, sterile water as carrier, groups of 5 wild type mice
Measured LD50, listed per entry.

SMILES_RECORD | LD50
O=C(Cc1ccccc1Nc1c(Cl)cccc1Cl)OC[C@H]1O[C@H](O[C@H]2O[C@H](CO)[C@@H](O)[C@H](O)[C@H]2O)[C@H](O)[C@@H](O)[C@@H]1O | 780 mg/kg

Here's the next entry for you.
Query: I have this compound here, `Cc1c(CC(=O)OC[C@H]2O[C@H](O[C@H]3O[C@H](CO)[C@@H](O)[C@H](O)[C@H]3O)[C@H](O)[C@@H](O)[C@@H]2O)c2ccccc2n1C(=O)c1ccc(Cl)cc1` , and I need its recorded LD50.
Reply: 900 mg/kg
